- Tested on: SCA2.1 (DNA, aptamer) CTTACGACCTTAAGTGGGGTTCGGGTGGAGTTTATGGGGTCGTAAG
- assay method text: ITC
- run conditions: 20 mM NaCl, 0.5 mM MgCl2; 10 mM Tris-HCl pH 7.4, 23 °C; racemate, modified two-site model; site 1 of 2 (one enantiomer)
Listed here: items and their measured KD1.
Could you give me the number in µM? Just the number is fine.

// below: answered compounds
> print(dat)
                                   compound                               test.system  recorded.endpoint  measured.value
1     CCNC(C)C(=O)c1ccc2c(c1)OCO2 (racemic)  SCA2.1 (DNA, aptamer) CTTACGACCTTAAGTGGGGTTCGGGTGGAGTTTATGGGGTCGTAAG                KD1            0.10
2  CCCC(C(=O)c1ccc2c(c1)OCO2)N1CCCC1 (racemic)  SCA2.1 (DNA, aptamer) CTTACGACCTTAAGTGGGGTTCGGGTGGAGTTTATGGGGTCGTAAG                KD1          0.0175
3     CCC(NC)C(=O)c1ccc2c(c1)OCO2 (racemic)  SCA2.1 (DNA, aptamer) CTTACGACCTTAAGTGGGGTTCGGGTGGAGTTTATGGGGTCGTAAG                KD1            0.16

# context switch: different compound, same KD1
Quick one: KD1 for CCCC(C(=O)c1ccccc1)N1CCCC1 (racemic) ? 0.09

====

- System: SCA2.1 (DNA, aptamer) CTTACGACCTTAAGTGGGGTTCGGGTGGAGTTTATGGGGTCGTAAG
- assay method text: Cy7 displacement, absorbance A670/A775
- run conditions: Cy7 (2 µM) displaced from 3 µM SCA2.1; highest concentration tested 50 µM
recorded endpoint: binding

Some solved cases for reference:
> print(dat)
                                 smiles.str                               test.system  measured.value
1              CN[C@@H](C)[C@@H](O)c1ccccc1  SCA2.1 (DNA, aptamer) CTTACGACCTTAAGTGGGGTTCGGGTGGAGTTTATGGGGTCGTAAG              no
2                Cn1c(=O)c2c(ncn2C)n(C)c1=O  SCA2.1 (DNA, aptamer) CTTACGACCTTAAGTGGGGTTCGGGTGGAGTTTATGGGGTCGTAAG              no
3                        CC(=O)Nc1ccc(O)cc1  SCA2.1 (DNA, aptamer) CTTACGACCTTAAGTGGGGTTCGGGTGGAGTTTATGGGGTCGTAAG              no
4                CCN(CC)CC(=O)Nc1c(C)cccc1C  SCA2.1 (DNA, aptamer) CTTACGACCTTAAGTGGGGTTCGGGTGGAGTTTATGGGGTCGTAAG              no
5  OC[C@H]1O[C@@](CO)(O[C@H]2O[C@H](CO)[C@@H](O)[C@H](O)[C@H]2O)[C@@H](O)[C@@H]1O  SCA2.1 (DNA, aptamer) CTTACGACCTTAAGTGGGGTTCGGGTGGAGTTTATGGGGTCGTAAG              no

Consider the compound CCOC(=O)c1ccc(N)cc1 and give its measured binding. no
